biological target: D(2) dopamine receptor (Rattus norvegicus); experiment: Affinity of compound for the Dopamine receptor D2 in rat striatal membranes was determined for […] in rat striatal membranes using [3H]spiperone; assay type: functional, cell membranes, Membrane
Sequence (P61169 whole entry): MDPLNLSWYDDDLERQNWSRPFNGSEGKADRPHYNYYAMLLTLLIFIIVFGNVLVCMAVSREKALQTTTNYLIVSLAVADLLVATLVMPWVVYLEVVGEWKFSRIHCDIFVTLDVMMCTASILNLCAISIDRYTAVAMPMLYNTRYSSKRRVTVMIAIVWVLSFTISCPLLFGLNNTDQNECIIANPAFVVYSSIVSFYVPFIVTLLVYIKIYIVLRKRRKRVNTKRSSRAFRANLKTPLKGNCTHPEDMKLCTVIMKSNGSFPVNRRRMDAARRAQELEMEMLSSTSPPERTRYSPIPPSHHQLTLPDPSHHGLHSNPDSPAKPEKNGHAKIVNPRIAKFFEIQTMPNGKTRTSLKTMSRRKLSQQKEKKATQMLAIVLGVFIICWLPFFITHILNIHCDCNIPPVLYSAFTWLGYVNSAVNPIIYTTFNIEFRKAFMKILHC
EXPERIMENTAL ENDPOINT: pKi
# pKi is unitless: minus log10 of the molar concentration; print number only

Input line: Reported pKi, molecule "FC(F)(F)c1nc2c(N3CCN(Cc4ccccc4)CC3)cccc2[nH]1" : ____
Output line: 8.48

---

target: D(3) dopamine receptor (Homo sapiens, UniProt P35462)
Sequence (P35462 whole entry): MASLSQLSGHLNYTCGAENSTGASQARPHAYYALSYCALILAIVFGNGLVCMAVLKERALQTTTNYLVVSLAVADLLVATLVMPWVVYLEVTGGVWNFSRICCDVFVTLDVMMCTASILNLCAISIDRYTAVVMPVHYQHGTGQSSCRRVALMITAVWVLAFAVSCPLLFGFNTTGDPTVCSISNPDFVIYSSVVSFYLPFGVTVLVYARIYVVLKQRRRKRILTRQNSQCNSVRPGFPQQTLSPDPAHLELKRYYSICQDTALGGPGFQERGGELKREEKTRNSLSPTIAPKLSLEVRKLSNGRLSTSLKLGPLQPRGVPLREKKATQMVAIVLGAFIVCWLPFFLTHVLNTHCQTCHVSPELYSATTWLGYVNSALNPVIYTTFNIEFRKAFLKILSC
// boundary case: Ki equal to 40 nM maps to label 0; strictly smaller maps to label 1

Input line: I wonder whether "O=C1Cc2c(cccc2N2CCN(Cc3ccccc3)CC2)N1" has Ki below 40 nM. Can you tell?
Output line: label 1

Input line: Then what about the molecule "FC(F)(F)c1nc2c(N3CCN(Cc4ccccc4)CC3)cccc2[nH]1" ?
Output line: label 1

Input line: Consider next the molecule "Brc1ccc(N2CCN(Cc3ccccc3)CC2)c2cc[nH]c12" in the same way.
Output line: label 0

Input line: # repeat for "c1ccc(CN2CCN(c3cccc4[nH]ccc34)CC2)cc1"
Output line: label 1

Input line: Similarly, "O=c1[nH]c2cccc(N3CCN(Cc4ccccc4)CC3)c2[nH]1" ?
Output line: label 0
